Values were extracted from ChEMBL document CHEMBL1127863.

# assayed-system: Angiotensin II receptor (Cavia porcellus)
# assay: Inhibition of [125I]AII binding to guinea pig adrenal membrane
test-readout: IC50 (nM)

// known answers, use as guide
# smiles-code, IC50, nM
measured = [
    ("CCc1cc(NCc2ccc(-c3ccccc3-c3nn[nH]n3)cc2)c(-c2ccc(C)cc2)c(CC)n1", 24.9),
    ("Cc1cc(NCc2ccc(-c3ccccc3-c3nn[nH]n3)cc2)c(Cl)c(C)n1", 6.65),
    ("CCc1cc(NCc2ccc(-c3ccccc3-c3nn[nH]n3)cc2)c(Br)c(CC)n1", 3.83),
    ("CCc1cc(NCc2ccc(-c3ccccc3-c3nn[nH]n3)cc2)c(Cl)c(CC)n1", 7.58),
    ("CCc1cc(NCc2ccc(-c3ccccc3-c3nn[nH]n3)cc2)c(C(=O)OC)c(CC)n1", 6.21),
]

a = CCc1cc(NCc2ccc(-c3ccccc3-c3nn[nH]n3)cc2)c(-c2ccc(C(F)(F)F)cc2)c(CC)n1
b = Cc1cc(NCc2ccc(-c3ccccc3-c3nn[nH]n3)cc2)c(I)c(C)n1
c = COC(=O)c1c(NCc2ccc(-c3ccccc3-c3nn[nH]n3)cc2)cc(C)nc1C
d = CCc1cc(OCc2ccc(-c3ccccc3-c3nn[nH]n3)cc2)c(I)c(CC)n1
Task item: Rank by IC50 (largest to smallest). API: response body holds the labels in the requested order.
Reply: a, d, c, b
